The entries below are paired with their reported IC50.
Target: Bifunctional epoxide hydrolase 2 (Homo sapiens)
Assay: Inhibition of human recombinant soluble epoxide hydrolase using (cyano(6-methoxy-naphthelen-2-yl)methyl trans-[(3-phenyl-oxiran-2-yl)methyl] carbonate) as substrate preincubated for 5 mins prior to substrate addition by fluorescence assay

Compound: CCCCCCCCS(=O)(=O)CCCCCCCC
Target Or System: Bifunctional epoxide hydrolase 2 (Homo sapiens)
Relation: >
IC50 / µM: 100

Compound: O=C(Nc1ccccc1)Nc1ccccc1
Target Or System: Bifunctional epoxide hydrolase 2 (Homo sapiens)
Relation: =
IC50 / µM: 0.4

Compound: CCCCCCCCSCCCCCCCC [DIOCTYLSULFANE]
Target Or System: Bifunctional epoxide hydrolase 2 (Homo sapiens)
Relation: >
IC50 / µM: 100

Compound: C[C@]12CC[C@@H]3c4ccc(O)cc4C[C@@H](CCCCCCCCC[S+]([O-])CCCC(F)(F)C(F)(F)F)[C@H]3[C@@H]1CC[C@@H]2O (stereo not given in full) [FULVESTRANT]
Target Or System: Bifunctional epoxide hydrolase 2 (Homo sapiens)
Relation: =
IC50 / µM: 0.006

Compound: CCCCCCCC[S+]([O-])Cc1ccccc1 (stereo not given)
Target Or System: Bifunctional epoxide hydrolase 2 (Homo sapiens)
Relation: =
IC50 / µM: 6.8

Compound: O=c1c2ccccc2[se]n1-c1ccccc1 [EBSELEN]
Target Or System: Bifunctional epoxide hydrolase 2 (Homo sapiens)
Relation: =
IC50 / µM: 2.2

Compound: [O-][S+](Cc1ccccc1)Cc1ccccc1
Target Or System: Bifunctional epoxide hydrolase 2 (Homo sapiens)
Relation: =
IC50 / µM: 70

Compound: O=C(Cc1ccccc1)Nc1ccccc1
Target Or System: Bifunctional epoxide hydrolase 2 (Homo sapiens)
Relation: =
IC50 / µM: 11

Compound: CCCCCCCCC(=O)CCCCCCCC
Target Or System: Bifunctional epoxide hydrolase 2 (Homo sapiens)
Relation: >
IC50 / µM: 100

Compound: CCCCCCCC[S+]([O-])CCCCCCCC
Target Or System: Bifunctional epoxide hydrolase 2 (Homo sapiens)
Relation: =
IC50 / µM: 1.35

* * *

Biological target: Bifunctional epoxide hydrolase 2 (Homo sapiens, UniProt P34913)
Sequence (P34913 whole entry): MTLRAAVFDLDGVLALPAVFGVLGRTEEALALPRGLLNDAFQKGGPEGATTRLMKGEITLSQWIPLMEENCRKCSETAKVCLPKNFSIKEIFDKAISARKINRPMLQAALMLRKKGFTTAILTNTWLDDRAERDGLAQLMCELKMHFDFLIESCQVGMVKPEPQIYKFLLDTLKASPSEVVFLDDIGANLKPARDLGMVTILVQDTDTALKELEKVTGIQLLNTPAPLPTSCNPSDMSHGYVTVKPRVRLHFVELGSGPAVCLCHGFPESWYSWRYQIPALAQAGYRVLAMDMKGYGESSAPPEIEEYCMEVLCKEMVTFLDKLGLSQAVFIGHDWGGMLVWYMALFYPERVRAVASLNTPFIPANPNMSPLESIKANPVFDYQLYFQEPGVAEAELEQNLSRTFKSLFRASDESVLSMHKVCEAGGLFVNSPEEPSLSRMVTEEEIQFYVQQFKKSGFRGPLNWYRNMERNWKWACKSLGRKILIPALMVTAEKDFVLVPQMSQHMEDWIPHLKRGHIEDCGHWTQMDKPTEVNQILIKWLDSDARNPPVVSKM
Assay: Competitive inhibition of human recombinant soluble epoxide hydrolase using [3H]-tDPPO as substrate
pKi: −log10 of the molar value.
Property Measured: pKi

Molecule: C[C@]12CC[C@@H]3c4ccc(O)cc4C[C@@H](CCCCCCCCC[S+]([O-])CCCC(F)(F)C(F)(F)F)[C@H]3[C@@H]1CC[C@@H]2O (stereo partly specified)
Reading: 7.59
